From: patent US12448383B2

# measurementProtocol: GI S9 stability - no PMSF
# Format: in vitro ADME
# conditionNotes: pH 7.4; human intestinal S9, PMSF-free; read-out: GIS9-HUMAN-NoPMSF T1/2
# key: entry, value: log10 of half-life at 2 µM
Hello, just confirming the data are log10 of half-life at 2 µM with units of min.

INSERT INTO assay_data (compound, valueobserved) VALUES
  ('CCC1O[C@H]2[C@@H](O1)[C@](C#N)(c1ccc3c(N)ncnn13)O[C@@H]2COC(=O)OC(C)C (stereo partly shown) [Compound 133]', -0.21),
  ('N#C[C@@]1(c2ccc3c(N)ncnn23)O[C@H](COC(=O)OCC2CC2)[C@@H](O)[C@H]1O [Compound 125]', -0.24),
  ('CC1(OC(=O)OC[C@H]2O[C@@](C#N)(c3ccc4c(N)ncnn34)[C@H](O)[C@@H]2O)CCCCCC1 [Compound 55]', -0.22),
  ('N#C[C@@]1(c2ccc3c(N)ncnn23)O[C@H](COC(=O)OC23CC(C(F)(F)F)(C2)C3)[C@@H](O)[C@H]1O [Compound 139]', 0.14),
  ('CCCCCCCCCCCCCCCCCCOC(=O)OC[C@H]1O[C@@](C#N)(c2ccc3c(N)ncnn23)[C@H](O)[C@@H]1O [Compound 126]', 1.99),
  ('N#C[C@@]1(c2ccc3c(N)ncnn23)O[C@H](COC(=O)OC2CCCCCCC2)[C@@H](O)[C@H]1O [Compound 14]', 0.03);

Pending compound:
Q. Find the measured log10 of half-life at 2 µM of CC(C)(OC(=O)OC[C@H]1O[C@@](C#N)(c2ccc3c(N)ncnn23)[C@H](O)[C@@H]1O)C(F)(F)F [Compound 67] and report it.
A. 1.02
